Molecular target: Polycomb protein chromodomain (Drosophila melanogaster, UniProt P26017)
Construct: The chromodomain (a.a. 1-90) of Polycomb protein was expressed as GST-tagged fusion protein; made in house
Sequence (P26017 1-90): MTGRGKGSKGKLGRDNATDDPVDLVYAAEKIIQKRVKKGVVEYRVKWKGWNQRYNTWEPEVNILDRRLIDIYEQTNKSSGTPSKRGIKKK
Experiment: Peptide microarray binding of GST-tagged Polycomb chromodomain
Parameters: dose or concentration left out as unconfirmed
Conditions: Binder if at least two of three spots pass p-value cutoff 0.001 from background
Text: There are a total of 46 histone peptide sequences (9 a.a. long) with a single lysine-trimethylation site which are conserved between the human and fruit fly H2, H3 and H4 proteins (Table II). […] Each peptide sequence was screened as triplets, and the fluorescence intensity was quantified with background subtraction individually for each spot from the microarray images by ImageJ^9 and the whole data set was fit to a mixed Gaussian distribution model (FIG. 8, Table III). […]
Primed or numbered codes have the meaning given here. No end group written: not given here. Me3 = trimethylation of the lysine side chain; Me3(3) = trimethyl (trimethylated lysine)

seqText	targetDesc	Array Verification
MDVVYALKR (MDVVYALK(Me3(3))R) [9-residue histone peptide, H4_DROME, trimethylated lysine site 91]	Polycomb protein chromodomain (Drosophila melanogaster, UniProt P26017)	Binder
ELAGNASKD (ELAGNASK(Me3(3))D)	Polycomb protein chromodomain (Drosophila melanogaster, UniProt P26017)	NonBinder
RTKQTARKS (also: trimethylated lysine, site not given here) [9-residue histone peptide, H3_DROME, trimethylated lysine site 9]	Polycomb protein chromodomain (Drosophila melanogaster, UniProt P26017)	Binder
PSTGGVKKP (also: trimethylated Lys, site not given here) [9-residue histone peptide, H33_DROME, trimethylated lysine site 37]	Polycomb protein chromodomain (Drosophila melanogaster, UniProt P26017)	NonBinder
YTEHAKRKT (YTEHAKRK(Me3)T) [9-residue histone peptide, H4_DROME, trimethylated lysine site 79]	Polycomb protein chromodomain (Drosophila melanogaster, UniProt P26017)	NonBinder
GNAARDNKK (also: trimethylated Lys, site not given here)	Polycomb protein chromodomain (Drosophila melanogaster, UniProt P26017)	NonBinder
VTYTEHAKR (VTYTEHAK(Me3(3))R) [9-residue histone peptide, H4_DROME, trimethylated lysine site 77]	Polycomb protein chromodomain (Drosophila melanogaster, UniProt P26017)	NonBinder
KAGKDSGKA (not fully specified (residue 8); also: trimethylated lysine, site not given here)	Polycomb protein chromodomain (Drosophila melanogaster, UniProt P26017)	NonBinder
GRIHRHLKS (GRIHRHLK(Me3(3))S)	Polycomb protein chromodomain (Drosophila melanogaster, UniProt P26017)	Binder
KGGKGLGKG (not fully specified (residue 8); also: trimethylated lysine, site not given here) [9-residue histone peptide, H4_DROME, trimethylated lysine site 12]	Polycomb protein chromodomain (Drosophila melanogaster, UniProt P26017)	NonBinder
